Numbers sourced from paper PMC12190736.

Biological target: recombinant α-syn fibrils (Homo sapiens)
Assay: Radioligand binding displacement of [^3H]-α-syn-tool on α-syn fibrils
Conditions: 5 nM [^3H]-α-syn-tool
# Ki per entry
Numeric answer only, unit nM assumed.

# query_smiles, Ki / nM
measured = [
    ("COc1ccc(-c2ccc(NC(=O)N3CCN(c4ccccc4)CC3)cc2C#N)cc1", 9.7),
    ("COc1ccc(-c2ccc(NC(=O)N3CCN(c4ccc(OC)cc4)CC3)cc2C#N)cc1", 6.5),
]

// switching to the query compound
Return the recorded Ki value; entry: "COc1ccccc1NC(=O)Nc1ccc(N2CCN(c3ccccn3)CC2)cc1"
6.8

* * *

Target: tau fibrils (Homo sapiens)
Sequence (P10636 623-708 limits assumed): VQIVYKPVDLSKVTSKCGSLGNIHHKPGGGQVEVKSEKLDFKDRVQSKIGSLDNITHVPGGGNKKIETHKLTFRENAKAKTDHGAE
Assay: [^3H]NFT-355 binding displacement on AD brain homogenates
Details: AD brain homogenate, 0.5 nM [^3H]NFT-355
Experimental: Compounds’ affinity for tau and Aβ fibrils was measured by means of radioligand binding displacement experiments on AD brain homogenates, using [^3H]NFT-355 [8] (AbbVie, North Chicago, IL, USA) and [^3H]Pittsburg Compound-B (PiB; Novandi Chemistry AB, Södertälje, Sweden) to label tau and Aβ aggregates, respectively. […]
pKi: −log10 of the molar value.
Decision: pKi >= 7 yields 1, all other cases yield 0.

Example cases with answers are listed next.
# compound, category_label
measured = [
    ("C[C@@H](C(=O)Nc1ccc(N2CCN(c3ccc(C#N)cn3)CC2)cc1)c1ccccc1 [GMC044]", 0),
    ("O=C(Nc1ccc(N2CCN(Cc3ccc(Cl)c(Cl)c3)CC2)cc1)c1cnccn1 [GMC021]", 0),
    ("COc1ccccc1CC(=O)Nc1ccc(N2CCN(c3ccc(F)cc3)CC2)cc1C#N [GMC086]", 1),
    ("COc1ccc(-c2ccc(NC(=O)N3CCN(c4ccccc4)CC3)cc2C#N)cc1 [GMC-098]", 0),
    ("COc1ccccc1CC(=O)Nc1ccc(N2CCN(c3ccc(C#N)cn3)CC2)cc1 [GMC023]", 1),
]

Confirm if pKi reported for the compound COc1ccccc1NC(=O)Nc1ccc(N2CCN(c3ccc(F)cc3)CC2)c(C#N)c1 [GMC-073] is 7 or above.
0

Threshold query (pKi >= 7) on COc1ccc(N2CCN(c3ccc(NC(=O)C(C)(C)C)cc3)CC2)cc1 [GMC-058]
0

Is pKi for COc1ccc(-c2ccc(NC(=O)N3CCN(c4ccc(OC)cc4)CC3)cc2C#N)cc1 [GMC096] at or above 7?
0

* * *

Target: tau fibrils (Homo sapiens)
Assay: [^3H]NFT-355 binding displacement on AD brain homogenates
Details: AD brain homogenate, 0.5 nM [^3H]NFT-355
experimental_endpoint: pKi
Please treat pKi as minus the base-10 logarithm of the molar concentration.

# molecule, pKi
rows = [
    ("COc1ccccc1NC(=O)Nc1ccc(N2CCN(c3ccccn3)CC2)cc1 [GMC070]", 7.05),
]

Provide tau fibrils (Homo sapiens) pKi reading for COc1cccc(CC(=O)Nc2ccc(N3CCN(c4ccc(C#N)cn4)CC3)cc2)c1 [GMC024] .
7.17

Answer briefly: pKi recorded on tau fibrils (Homo sapiens) for COc1ccc(CC(=O)Nc2ccc(N3CCN(c4ccc(C#N)cn4)CC3)cc2)cc1 [GMC025]
7.30

Quote tau fibrils (Homo sapiens) pKi for entry COc1ccccc1CC(=O)Nc1ccc(N2CCN(c3ccc(F)cc3)CC2)nc1 [GMC079] .
5.60

Give the observed pKi of COc1ccc(-c2ccc(NC(=O)N3CCN(c4ccc(C#N)cn4)CC3)cc2C#N)cc1 [GMC095] for tau fibrils (Homo sapiens).
5.60

Provide pKi, system tau fibrils (Homo sapiens), entry COc1ccc(-c2ccc(NC(=O)N3CCN(c4ccccn4)CC3)cc2C#N)cc1 [GMC015]
6.12

Tell me its pKi on tau fibrils (Homo sapiens): COc1ccc(/C=C/c2ccc(N3CCN(c4ccc(C#N)cn4)CC3)cc2)cn1 [GMC013_FR-1]
6.82

* * *

Target: AD, PSP, CBD, MSA-P, PD and control brain homogenates
Assay: Saturation binding assays with [^3H]GMC-058 in brain homogenates
Conditions: control brain homogenates
pKd: −log10 of the molar value.
experimental_endpoint: pKd

Tell us which pKd value is on record for [3H]c1cc(N2CCN(c3ccc(NC(=O)C(C)(C)C)cc3)CC2)ccc1OC [[^3H]GMC-058]
< 7.00

* * *

Target: Aβ fibrils (Homo sapiens)
Sequence (P05067 672-711 limits assumed): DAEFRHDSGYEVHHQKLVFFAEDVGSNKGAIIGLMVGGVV
Assay: [^3H]PiB binding displacement on AD brain homogenates
Conditions: AD brain homogenate, 1 nM [^3H]PiB
Each entry below carries its reported pKi.
In plain terms, pKi is the concentration in mol/L turned into minus its base-10 logarithm.

Field: example entries. Status: answers known.
# molecule, pKi
data = [
    ("COc1ccccc1CC(=O)Nc1ccc(N2CCN(c3ccc(C#N)cn3)CC2)cc1 [GMC023]", 6.82),
    ("COc1ccccc1NC(=O)Nc1ccc(N2CCN(c3ccccn3)CC2)cc1 [GMC070]", 7.19),
    ("COc1ccc(-c2ccc(NC(=O)N3CCN(c4ccc(OC)cc4)CC3)cc2C#N)cc1 [GMC096]", 7.29),
]

Give measured pKi for COc1ccc(-c2ccc(NC(=O)N3CCN(c4ccccn4)CC3)cc2C#N)cc1 [GMC015] (Aβ fibrils (Homo sapiens)).
6.53

Return reported pKi for target or system Aβ fibrils (Homo sapiens), item COc1ccc(N2CCN(c3ccc(NC(=O)C(C)(C)C)cc3)CC2)cc1 [GMC-058] .
5.83

# return pKi for COc1ccccc1NC(=O)Nc1ccc(N2CCN(c3ccccn3)CC2)c(C#N)c1 [GMC071] , test system: Aβ fibrils (Homo sapiens)
5.09

Check Aβ fibrils (Homo sapiens) data and give pKi for COc1cccc(CC(=O)Nc2ccc(N3CCN(c4ccc(C#N)cn4)CC3)cc2)c1 [GMC024] .
7.09

Using Aβ fibrils (Homo sapiens) as the test system, report measured pKi of COc1ccc(-c2ccc(NC(=O)N3CCN(c4ccccc4)CC3)cc2C#N)cc1 [GMC-098] .
6.65

Supply pKi measured with Aβ fibrils (Homo sapiens) for COc1ccccc1NC(=O)Nc1ccc(N2CCN(c3ccc(F)cc3)CC2)c(C#N)c1 [GMC-073] .
5.58

* * *

Molecular target: recombinant α-syn fibrils (Homo sapiens)
Assay: Radioligand binding displacement of [^3H]-α-syn-tool on α-syn fibrils
Conditions: 5 nM [^3H]-α-syn-tool
The following compounds are shown together with reported pKi values.
Answer as the number alone; pKi is minus log10 of concentration in mol/L.

Consider the worked cases shown below.
# query_smiles, experimental_endpoint, reported_result
data = [
    ("COc1cccc(CC(=O)Nc2ccc(N3CCN(c4ccc(C#N)cn4)CC3)cc2)c1", "pKi", 7.60),
    ("COc1ccc(CC(=O)Nc2ccc(N3CCN(c4ccc(C#N)cn4)CC3)cc2)cc1", "pKi", 7.53),
    ("COc1ccccc1NC(=O)Nc1ccc(N2CCN(c3ccc(F)cc3)CC2)c(C#N)c1", "pKi", 8.10),
]

As a next step, examine the compound that follows.
Return reported pKi for target or system recombinant α-syn fibrils (Homo sapiens), item "C[C@@H](C(=O)Nc1ccc(N2CCN(c3ccc(C#N)cn3)CC2)cc1)c1ccccc1" .
7.60

* * *

Target: AD, PSP, CBD, MSA-P, PD and control brain homogenates
Assay: Saturation binding assays with [^3H]GMC-058 in brain homogenates
Conditions: PSP brain homogenates
experimental_endpoint: Kd

GET Kd where system = AD, PSP, CBD, MSA-P, PD and control brain homogenates and item = [3H]c1cc(N2CCN(c3ccc(NC(=O)C(C)(C)C)cc3)CC2)ccc1OC [[^3H]GMC-058]
> 0.05 µM

* * *

Target: AD, PSP, CBD, MSA-P, PD and control brain homogenates
Assay: Saturation binding assays with [^3H]GMC-058 in brain homogenates
Settings: CBD brain homogenates
pKd: −log10 of the molar value.
experimental_endpoint: pKd

Tell me pKd reported for [3H]c1cc(N2CCN(c3ccc(NC(=O)C(C)(C)C)cc3)CC2)ccc1OC [[^3H]GMC-058]
< 7.30

* * *

Molecular target: recombinant α-syn fibrils (Homo sapiens)
Test: Radioligand binding displacement of [^3H]-α-syn-tool on α-syn fibrils
Details: 5 nM [^3H]-α-syn-tool
Experimental: Compound affinity for α-syn fibrils was measured by means of radioligand binding displacement experiments of an AbbVie tool radioligand with high affinity for α-syn fibrils ([^3H]-α-syn-tool). The aggregation of α-syn monomers into fibrils was obtained as described by Bousset et al.. […]
The entries below come with measured Ki values attached.

Examples from the recorded data:
# query_smiles, Ki
rows = [
    ("COc1ccc(-c2ccc(NC(=O)N3CCN(c4ccc(C#N)cn4)CC3)cc2C#N)cc1", "14.5 nM"),
    ("COc1ccccc1CC(=O)Nc1ccc(N2CCN(c3ccc(F)cc3)CC2)nc1", "23.9 nM"),
    ("COc1ccccc1CC(=O)Nc1ccc(N2CCN(c3ccc(F)cc3)CC2)cc1C#N", "15.2 nM"),
    ("COc1ccc(/C=C/c2ccc(N3CCN(c4ccc(C#N)cn4)CC3)cc2)cn1", "25.5 nM"),
    ("COc1ccc(N2CCN(c3ccc(NC(=O)C(C)(C)C)cc3)CC2)cc1", "22.5 nM"),
]

Return value of Ki for input "O=C(Nc1ccc(N2CCN(Cc3ccc(Cl)c(Cl)c3)CC2)cc1)c1cnccn1" , no commentary.
22.2 nM

Identify the reported Ki for the following entry. "COc1ccc(-c2ccc(NC(=O)N3CCN(c4ccccn4)CC3)cc2C#N)cc1"
28.3 nM

Tell me its Ki given "COc1ccccc1CC(=O)Nc1ccc(N2CCN(c3ccc(C#N)cn3)CC2)cc1" as the entry.
21.2 nM

Name the recorded Ki of the molecule listed here: "COc1ccccc1NC(=O)Nc1ccc(N2CCN(c3ccccn3)CC2)c(C#N)c1"
14.2 nM
